molecular target: T1, Clostridium difficile toxin A (TcdA) (Clostridium difficile strain 10463, UniProt P16154 1-2710); assay: SPR (BIACORE 3000); 10,287 RUs of TcdA immobilized, VHH injected
T1 construct: range 1-2710
T1 sequence (P16154 whole entry): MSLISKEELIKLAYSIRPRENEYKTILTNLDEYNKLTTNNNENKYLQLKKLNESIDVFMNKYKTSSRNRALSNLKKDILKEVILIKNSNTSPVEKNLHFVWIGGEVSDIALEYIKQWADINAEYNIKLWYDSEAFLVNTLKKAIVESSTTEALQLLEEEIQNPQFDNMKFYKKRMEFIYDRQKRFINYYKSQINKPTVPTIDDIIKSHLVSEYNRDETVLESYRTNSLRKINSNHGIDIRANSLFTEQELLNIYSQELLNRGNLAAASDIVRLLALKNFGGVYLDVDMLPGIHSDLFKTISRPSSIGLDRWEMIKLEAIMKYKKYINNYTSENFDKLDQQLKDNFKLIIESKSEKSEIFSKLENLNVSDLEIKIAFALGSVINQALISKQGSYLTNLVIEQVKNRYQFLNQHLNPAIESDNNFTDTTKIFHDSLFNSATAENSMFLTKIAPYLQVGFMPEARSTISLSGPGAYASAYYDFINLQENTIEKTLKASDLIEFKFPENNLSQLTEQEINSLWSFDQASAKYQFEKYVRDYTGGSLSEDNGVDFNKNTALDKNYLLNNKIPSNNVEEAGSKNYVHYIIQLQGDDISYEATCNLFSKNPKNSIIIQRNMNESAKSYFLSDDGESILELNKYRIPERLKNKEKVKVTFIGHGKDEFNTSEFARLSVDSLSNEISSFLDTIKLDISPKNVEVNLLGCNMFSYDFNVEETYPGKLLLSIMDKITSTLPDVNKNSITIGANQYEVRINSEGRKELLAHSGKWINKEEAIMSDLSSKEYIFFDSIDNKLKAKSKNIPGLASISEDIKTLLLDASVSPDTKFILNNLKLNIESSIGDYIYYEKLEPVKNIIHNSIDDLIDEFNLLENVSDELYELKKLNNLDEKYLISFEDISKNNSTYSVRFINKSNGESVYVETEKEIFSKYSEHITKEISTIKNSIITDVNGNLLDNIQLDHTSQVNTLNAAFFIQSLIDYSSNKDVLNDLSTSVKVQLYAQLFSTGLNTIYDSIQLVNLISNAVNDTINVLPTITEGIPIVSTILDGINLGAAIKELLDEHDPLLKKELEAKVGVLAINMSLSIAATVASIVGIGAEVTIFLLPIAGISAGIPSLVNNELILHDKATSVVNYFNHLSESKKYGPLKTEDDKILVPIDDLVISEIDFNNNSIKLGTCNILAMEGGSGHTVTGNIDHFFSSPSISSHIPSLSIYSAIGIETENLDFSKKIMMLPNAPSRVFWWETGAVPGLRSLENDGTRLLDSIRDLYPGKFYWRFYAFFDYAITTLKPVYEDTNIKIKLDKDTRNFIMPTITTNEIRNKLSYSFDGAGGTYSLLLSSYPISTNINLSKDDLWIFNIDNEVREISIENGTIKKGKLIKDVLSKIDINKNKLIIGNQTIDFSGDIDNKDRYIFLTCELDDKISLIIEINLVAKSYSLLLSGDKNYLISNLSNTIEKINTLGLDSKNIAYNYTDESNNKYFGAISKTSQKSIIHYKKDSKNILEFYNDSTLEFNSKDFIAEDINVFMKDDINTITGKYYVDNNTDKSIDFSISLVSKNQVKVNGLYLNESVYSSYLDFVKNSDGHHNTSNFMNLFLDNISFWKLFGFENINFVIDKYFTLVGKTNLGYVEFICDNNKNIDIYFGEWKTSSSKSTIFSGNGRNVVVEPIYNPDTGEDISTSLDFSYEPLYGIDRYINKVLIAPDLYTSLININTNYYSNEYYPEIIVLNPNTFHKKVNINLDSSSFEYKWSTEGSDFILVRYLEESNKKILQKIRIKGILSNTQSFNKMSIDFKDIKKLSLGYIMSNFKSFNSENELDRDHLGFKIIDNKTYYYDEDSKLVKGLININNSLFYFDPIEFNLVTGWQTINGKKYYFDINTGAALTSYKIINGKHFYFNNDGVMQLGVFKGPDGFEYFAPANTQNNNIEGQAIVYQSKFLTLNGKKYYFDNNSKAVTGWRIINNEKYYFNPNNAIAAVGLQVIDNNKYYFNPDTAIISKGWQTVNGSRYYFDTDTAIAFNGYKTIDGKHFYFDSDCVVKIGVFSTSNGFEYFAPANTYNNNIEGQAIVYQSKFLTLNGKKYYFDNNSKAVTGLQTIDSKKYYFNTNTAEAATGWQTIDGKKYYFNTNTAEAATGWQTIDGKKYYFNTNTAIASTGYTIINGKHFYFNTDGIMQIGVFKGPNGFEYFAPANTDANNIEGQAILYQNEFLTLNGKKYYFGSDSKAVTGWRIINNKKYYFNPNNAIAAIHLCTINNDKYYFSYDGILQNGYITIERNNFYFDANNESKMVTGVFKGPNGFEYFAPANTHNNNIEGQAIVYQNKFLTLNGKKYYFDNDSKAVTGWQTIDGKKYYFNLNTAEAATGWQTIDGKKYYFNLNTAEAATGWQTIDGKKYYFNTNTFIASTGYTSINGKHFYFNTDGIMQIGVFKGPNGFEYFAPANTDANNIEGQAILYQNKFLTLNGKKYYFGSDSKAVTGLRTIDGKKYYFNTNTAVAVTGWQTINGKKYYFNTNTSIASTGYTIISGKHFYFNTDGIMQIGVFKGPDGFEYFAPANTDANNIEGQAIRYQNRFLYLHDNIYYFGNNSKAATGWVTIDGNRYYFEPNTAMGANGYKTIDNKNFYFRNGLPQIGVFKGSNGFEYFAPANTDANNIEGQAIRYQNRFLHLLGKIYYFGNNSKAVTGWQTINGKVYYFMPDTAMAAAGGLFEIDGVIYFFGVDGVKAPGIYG
For each entry below, report its kon value.
Output spec: scalar in M⁻¹ s⁻¹, unitless text.

Problem: Find the recorded kon belonging to A5.1m (VHH, also called mutant A5.1; disulfide mutant of A5.1) VHH: QVKLEESGGGLVQAGGSLRLSCAASGRTFSMYRMGWFRQAPGKEREFVCVITRNGSSTYYADSVKGRFTCSRDNAKNTVYLQMNSLKPEDTALYYCAATSGSSYLDAAHVYDYWGQGTQVTVSS and report it.
Result: 950000

Problem: Field entry: A20.1m (VHH, also called mutant A20.1; disulfide mutant of A20.1) VHH: QVQLVESGGGLAQAGGSLRLSCAASGRTFSMDPMAWFRQPPGKEREFVCAGSSTGRTTYYADSVKGRFTCSRDNAKNTVYLQMNSLKPEDTAVYYCAAAPYGANWYRDEYAYWGQGTQVTVSS
Result: 640000

Problem: Field entry: A26.8m (VHH, also called mutant A26.8; disulfide mutant of A26.8) VHH: QVKLEESGGGLVQAGGSLRLSCAASERTFSRYPVAWFRQAPGAEREFVCVISSTGTSTYYADSVKGRFTCSRDNAKVTVYLQMNNLKREDTAVYFCAVNSQRTRLQDPNEYDYWGQGTQVTVSS
Result: 1e+06

Problem: Field entry: A4.2m (VHH, also called mutant A4.2; disulfide mutant of A4.2) VHH: QVKLEESGGGLVQAGGSLRLSCAASGRTFNTLSMGWFRQAPGKEREFVCAVSRSGGSTYYADSVKGRFTCSRDNAKNTVYLQMNSLKPEDTAVYYCAAAATKSNTTAYRLSFDYWGQGTQVTVSS
Result: 930000
